Test system: BDF1 mice, P388 leukemia ip, median survival T/C
test-summary: NCI In Vivo Anticancer Drug Screen. Data for tumor model P388 Leukemia (intraperitoneal) in B6D2F1 (BDF1) mice
experimental-setup: endpoint: median survival time; dose: 12.5 mg/kg/injection; schedule: Q04DX003 (ip); vehicle: saline with Tween-80
Toxic doses and inconclusive results are not listed. The calls were made as follows: active = survival T/C of 150% or more; inactive = T/C below 125% in these data.
Mark one answer only. Choices: active, inactive

Recorded call for CCCCCCCCCCC(N)P(=O)(O)O (stereo not given) ? inactive

Recorded call for "CC1(C)N=C(N)N=C(N)N1c1ccc(OCCOc2ccc(S(=O)(=O)F)cc2)c(Cl)c1" ? active

Recorded call for "CCCCOc1cc(C(=O)NCCN(CC)CC)c2ccccc2n1" ? inactive

Recorded call for "O=C(C=C(C(F)(F)F)C(F)(F)F)c1cc(Cl)ccc1Cl" ? inactive

Recorded call for O=C1C(=C(C(F)(F)F)C(F)(F)F)C2CCC1C2 (stereo not given) ? inactive

Recorded call for C=CC(CO)N1CC1 (stereo not given) ? inactive

Recorded call for O=C1NC(=O)C2(CCCc3ccc(N(CCCl)CCCl)cc32)N1 (stereo not given) ? active

Recorded call for CCCCN(CCCC)CC(O)c1ccc2cc(Cl)cc(Cl)c2n1 (stereo not given) ? inactive

Recorded call for "CCCCC(=O)N(c1ccc(Nc2c3ccccc3nc3cc([N+](=O)[O-])ccc23)cc1)S(C)(=O)=O" ? active

Recorded call for OC(Cc1ccc2ccccc2n1)C(Cl)(Cl)Cl (stereo not given) ? inactive
